Test system: K4 kissing-loop RNA reporter
test_description: apparent KD of K4 kissing-loop reporter; higher = weaker reporter binding
experimental_setup: Eterna round: R107; input ligand: theophylline 20 uM
measured_endpoint: apparent KD of K4 kissing-loop reporter (nM)
Use nM as the unit, but write only the number.

GET /value?item= ACACUAUCGUCAUAGACGGUAGUGAAAUGUGAGGAUAUGAGUGAUGUUAGAAGGCACAAAGACUGUAUCGAAUAGAUACAGUCAA [FmnA 6 #K4BetweenAptamer #OpenEnded] &field=apparent KD of K4 kissing-loop reporter returns 127

Please fill in: apparent KD of K4 kissing-loop reporter reported for CAUUAAACUCAAACUAUUGGGUUUACGUUCCGAGGACCGGUACGGCCGCCACUCGGUCGAUGCUAUACCAUACGAGUGAUGUUCG [theeternabot_sameState_KL_Trp_A_1] = 404

Sample `AGUCCACUCUAAAGAGUGGACCUAAGGGAUACCAGUGAUGUUGGUCACCCUUGGCAGCCCGCUGUCAUCGAUAAAGAUGGCAGGA` ; apparent KD of K4 kissing-loop reporter observed: 127

Entry UACUUAUAGUUAUUUCUAAAUUUAUUUAGUCAGGAUAUCGAAUAGUCGAGAAGGGACAUAAUCAAGUGAUGUUUGAUUAUUCAAA [JR_SSFMNA_Sub023] ; apparent KD of K4 kissing-loop reporter = 88.8

In plain terms, CCGUGGAGUGAUGUUCCACGUACUACGGAUACCAGCUUUGCCAAAGGCCCUUGGCAGCCGCACGUUGCAGUGAUGUUGUGGCGCG [Same State Theophylline A G9] has a documented apparent KD of K4 kissing-loop reporter of 328

The sequence identified as AACACUCAGAGAGUGAUGUUCUCUAAUAAACGAGGACCGGUACGGCCGCCACUCGAAUAAGAGUGAGUCCUACGAAAAGUAGGAC [Omei inspired 5 #OpenEnded] registered its apparent KD of K4 kissing-loop reporter at 1120

----------
Assign apparent KD of K4 kissing-loop reporter to each entry below.
Test system: K4 kissing-loop RNA reporter;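 note: bound reporter read as fluorescence of individual clusters on recovered sequencing chips by microscopy, with normalized cluster intensities fitted with a binding model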
test_description: apparent KD of K4 kissing-loop reporter; higher = weaker reporter binding
experimental_setup: Eterna round: R107; input ligand: tryptophan 2.4 mM
Give the value in nM but do not write nM after it.

Sample AUUAUAUUGUGAAGGAGCGCGCAUAGUAGUGAUGUUACUAUGACAUAUCUUAUUUAAUUCUCGCAGGUAGGUCGCACAUUAUAUA [JR_Nu_ExcArginiB_Sub026] , system: K4 kissing-loop RNA reporter. Its apparent KD of K4 kissing-loop reporter is 71.8

Measured apparent KD of K4 kissing-loop reporter (K4 kissing-loop RNA reporter), entry UUUGUAGAGGGAAGGAGCGUGAAAGAGAAAGAAUAUAGUGAUGUUAUAUAGAAGAAAGAAUCACAGGUAGGUCGCCCGGAGGAGG [SSArgB.E] : 295

Measured apparent KD of K4 kissing-loop reporter (K4 kissing-loop RNA reporter), entry AAUGUACAAGUGAUGUUUGUACUUUCCGAAGGAGCGUCAAAUAAGACAGGUAGGUCGCGGAUACUCUAAAUAAUCAGGUCAUUAA [JR_ExcArginiA_Sub019] : 85

AAUAAAAUCACGGCCGCCACUGAUUUCCGUAUUAGGAGUGAUGUUCCUAUGACUAUAUAAUUUAACAGGACCGGGUGAAUAUUUA [#21 K4 Tryptophan B Exclusion] tested on K4 kissing-loop RNA reporter gave apparent KD of K4 kissing-loop reporter: 97.8

----------
Tested on: MS2 coat protein
test_description: apparent KD of MS2 coat protein; designed switch direction (-1 OFF switch, 1 ON switch): -1; higher = weaker reporter binding
experimental_setup: Eterna round: R95; input ligand: FMN 200 uM
Tick yes (1) if apparent KD of MS2 coat protein is 50 nM or greater. Tick no (0) if apparent KD of MS2 coat protein is less than 50 nM.

// query # check: apparent KD of MS2 coat protein of ACUUGCUUUUUGCUCGUCUUAUUUUUGUUGACGUUCUAUACAUGAGGAUCACCCAUGUUUUGUUCCUUGUGCUGGUA [JR_SV3TOV2_Sub073] (puzzle: Sensor v3, turn-off variant 2) is greater than or equal to 50 nM
// result yes (1)

// query Is it the case that UUUUUCGAACAAGCUACGUACAUGAGGAUCACCCAUGUUGGUAGAUUUGAGUAGGUUUGGAUGGAAGCUCGUCUUAU [JR_SV3TOV1_Sub083] (puzzle: Sensor v3, turn-off variant 1) has apparent KD of MS2 coat protein reaching or exceeding 50 nM?
// result no (0)

// query Decide: is the reported value of apparent KD of MS2 coat protein for GGUCGGCGAGGAUAUACAUGAGGAUCACCCAUGUGAUAGAGUGCACGCGUACGUGUAUGUAGAAGGCGCUGACG [JL-ex3-3.29 salish99 mod] (puzzle: Exclusion 3) equal to or greater than 50 nM?
// result yes (1)

// query State whether the measured apparent KD of MS2 coat protein reaches 50 nM, counting equality as reaching it, for ACGUAUAGAGGAUAUAGUGAAUAUUACAUGAGGAUCACCCAUGUUCUUCAAAGCAUAUUCCUAGAAGGCUAAUGAA [EX-5 Malc#12] (puzzle: Exclusion 5)
// result yes (1)

// query Please tell me: is the sequence UGGUAACAUGAGGAUCACCCAUGUCAGGAUAUCAGGAAGAAGAGAGGAGAGUAGAAGAUGAGAAGGGACUAUAU [Excluse me! 10 - Jieux - Exclusion 1] (puzzle: Exclusion 1) at or over 50 nM in terms of apparent KD of MS2 coat protein?
// result no (0)

----------
System: MS2 coat protein
test_description: apparent KD of MS2 coat protein; designed switch direction (-1 OFF switch, 1 ON switch): -1; higher = weaker reporter binding
experimental_setup: input ligand: FMN 200 uM
Use 200 nM as the dividing line for apparent KD of MS2 coat protein, with the line itself on the MET side and lower values as NOT MET.

// query Assess whether reported apparent KD of MS2 coat protein for ACGAAGCACGAGGAUAUGACCAUAGUGAUAUGGUCAGAAGGCGUAACAUGAGGAUCACCCAUGUAGUGGCCUCG [Eternabot (Original) Solution 12] (Eterna round: R97, puzzle: Exclusion 6) sits at 200 nM or higher.
// result MET

// query Tell me whether apparent KD of MS2 coat protein is at least 200 nM here: GGCGCACAUGAGGAUCACCCAUGUGAGGAUAUUAGGCGAUCGUCGAAAGACGAUAGCCUGAGAAGGCACAUGCC [Eli x1 4.19] (Eterna round: R97, puzzle: Exclusion 1)
// result NOT MET

// query Does the reported apparent KD of MS2 coat protein for AAAAUACAUGAGGAUCACCCAUGUGAGGAUAUGAGAGUCAUUUAUAUAUAUUAGAUUCUCAGAAGGCACAUAAA [JR_Ex1_Sub068] (Eterna round: R97, puzzle: Exclusion 1) fall at or above the 200 nM mark?
// result MET

// query Could you verify whether the entry CGAUGCACGAGUCCACAUGAGGAUCACCCAUGUCGUGUUAGCGAGGAUAUCGGAGACACAUAGUAUGAGAAGGCGCGAACCUGA [Ex NG3 #21] (Eterna round: R96, puzzle: Exclusion NG 3) shows apparent KD of MS2 coat protein of no less than 200 nM?
// result NOT MET

// query Check if apparent KD of MS2 coat protein >= 200 nM (inclusive). Item: AAAUUCAGAGGAUAUGCGCAUAGAUAAGACUUUGUUUCUUAACAUGAGGAUCACCCAUGUAGAAGGCUGUACAA [Ex2 #68] (Eterna round: R97, puzzle: Exclusion 2)
// result NOT MET

// query Given the entry UAUUAGUAAGGAUAUCCUUGCAUGGACGAAAGUCCAUGCAAGGAGAAGGUACAUGAGGAUCACCCAUGUUUAUU [Mod of Fisker 15 - Jieux - Exclusion 4] (Eterna round: R97, puzzle: Exclusion 4) , answer whether its apparent KD of MS2 coat protein meets or surpasses 200 nM.
// result NOT MET

// query Given the entry GUACUCGGAUGACAGUCCGACAUGAGGAUCACCCAUGUUUCAUUAAGGUCGUUGCUCGUCAAACAUCACUCAACCAG [Eternabot (L1) Solution 35] (Eterna round: R97, puzzle: Sensor, turn-off variant 1) , answer whether its apparent KD of MS2 coat protein meets or surpasses 200 nM.
// result NOT MET

----------
System: MS2 coat protein
test_description: apparent KD of MS2 coat protein; higher = weaker reporter binding
experimental_setup: Eterna round: R107; input ligand: arginine 13.2 mM
Hi there, I'd appreciate the recorded apparent KD of MS2 coat protein for every entry that follows.
Reply with just the number (in nM).

// apparent KD of MS2 coat protein lookup, sequence = ACAUGAGGAUCACCCAUGUGAUGGCGCGAUACCAGCUGAUCCCGUGGCCCUUGGCAGCGUCCGGUGUGGUCCGGCGGGUGGGACG [khkmullin] , result: 91.4

Given item ACCCUAGCGAUCGCUCGCUAGGGUGCGGAUACCAGCGAGGUCCAUCGCCCUUGGCAGCCGAACAUGAGGAUCACCCAUGUCGGUA [#1 Same State - Theophylline A Attempt #19 (HarryS)] , the value recorded as its apparent KD of MS2 coat protein is 10.1

Value of apparent KD of MS2 coat protein reported for the sequence CGAGUAAGUUCAAUCGAAUAACGGUUUUCGCGAGGACCGGUACGGCCGCCACUCGUGUGAUAUCACACAUGAGGAUCACCCAUGU [3'end-1] is 42.7

Just so you know, measured apparent KD of MS2 coat protein for GUAGCUGAGUGUGAUACCAGAAACGACGUCCUUUAUCAUAACAUGAGGAUCACCCAUGUCUUCCCUUGGCAGCACUUUUCGGUCU [theeternabot_exclusion_MS2_Theo_B_24] came out at 29.6

Where do the numbers come from? From the supplement of paper PMC9170038.
